# Study system: Proteasome subunit beta (Trypanosoma cruzi) (UniProt O96673)
# Sequence (O96673 as listed by the source): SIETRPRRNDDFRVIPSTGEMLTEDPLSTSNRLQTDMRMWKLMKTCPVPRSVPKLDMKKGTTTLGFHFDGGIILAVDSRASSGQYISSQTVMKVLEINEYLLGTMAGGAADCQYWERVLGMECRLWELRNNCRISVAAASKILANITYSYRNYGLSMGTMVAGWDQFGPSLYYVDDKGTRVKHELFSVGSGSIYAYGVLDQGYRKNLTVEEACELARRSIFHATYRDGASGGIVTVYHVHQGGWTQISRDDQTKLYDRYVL
# Assay name: Trypanosoma cruzi proteasome chymotrypsin-like activity (TcProtChymo) assay. Also: in the data most compounds retested in dose-response had high values.
# Format: functional
# Design: scale not given: direction of the effect not stated beside the values
# Conditions used: 9.37 µM
Listing: Percent Effect of selected compounds
Endpoint name: Percent Effect (%)

1) c1ccc(CN2CCC3(CC2)CCN(Cc2cccs2)C3)nc1
6.61
2) O=C(Cn1ccc2c(Cl)cccc21)N1CCC2(CC1)OCCO2
11.8
3) O=C(NCC1CC1)[C@H]1C[C@@H]2[C@@H](C1)OCCN2Cc1cccnc1
-2.73
4) c1cnc(N2CCCC3(CCN(Cc4ccncc4)C3)C2)nc1 (centres undefined)
24.7

---

Listing: Percent Effect of selected compounds
# Study system: Shiga toxin 2 (Escherichia coli O157:H7) (UniProt P09385+P09386)
# Assay name: E. coli 0.157:H7 Shiga Toxin SOP - stx2 screening assay
# Assay type: functional
# Parameters: scale not given: direction of the effect not stated beside the values
# Conditions used: 30 µM
Endpoint name: Percent Effect (%)

1) COc1ccccc1C(=O)N(C)Cc1ncc(C)c(OC)c1C
11.8
2) Cn1cc(N2CCC3(CCN(S(=O)(=O)C4CC4)C3)C2=O)cn1 (stereo unspecified)
-21.1
3) CC(C)CNC(=O)c1c(-n2cnnn2)sc2c1CCC2
2.02
4) c1cc2c(cc1C1CCCN1Cc1nnnn1C1CC1)OCCO2 (stereo unspecified)
3.61
5) Cn1cc(NS(=O)(=O)c2ccc(OC(F)(F)F)cc2)ccc1=O
-3.73
6) NS(=O)(=O)CCNC(=O)C1(c2ccc(Br)cc2)CC1
-28.2
7) Cc1ccc(NC2CCN(C(=O)c3ccsc3)CC2)nn1
-2.79
8) CC(C)OCCCNC(=O)c1ccc(-c2ccco2)[nH]c1=O
19
9) O=C(c1ccc2[nH]ccc2c1)N1CCn2cnc(COCC3CC3)c2C1
-13.5
10) O=C(NCC(Cc1cccc(F)c1)N1CCCC1=O)c1cnccn1 (stereo unspecified)
-15.9
11) Cn1ccc(C(=O)NC2CCN(c3ncccn3)CC2)cc1=O
24.2
12) Cc1csc(C2CCCCN2C(=O)CN(C)Cc2ccccc2)n1 (stereo unspecified)
8.13
13) COc1cccc(CNC(=O)C(c2cccc(F)c2)N2CCOCC2)c1 (stereo unspecified)
-6.55
14) CCCN1CCN(C(=O)c2scnc2C)CC1
5.75
15) O=C(CCc1cc2n(n1)CCCN(C(=O)c1ccccn1)C2)NC1CC1
9.76
16) CN1CCN(C(=O)[C@@H]2CCO[C@@H]3CCN(c4ncccn4)C[C@@H]32)CC1
-16.6
17) NS(=O)(=O)CCNC(=O)c1nnn(-c2ccccc2)c1C1CC1
-12.7
18) O=C([C@H]1CCCO1)N1CCCC2(CCN(Cc3ccncc3)C2=O)C1 (stereo partly specified)
-9.24
19) CCn1ncc2c1C(COCC1CC1)CN(C(=O)c1cccs1)C2 (stereo unspecified)
33.1
20) Cc1nc(C(C)(C)NC(=O)Nc2cccc(C#N)c2)no1
-19.6
21) CCc1nc(C2CCCN(C(=O)c3ccc(OC(C)C)nc3)C2)no1 (stereo unspecified)
17.3

---

# System: Trypanosoma cruzi
# Assay name: Trypanosoma cruzi phosphomannomutase and mannose-1-phosphate guanylyltransferase assay
# Format: functional
# Design: scale not given: direction of the effect not stated beside the values
# Conditions used: 10 µM
Listing: Percent Effect of selected compounds
Endpoint name: Percent Effect (%)

1) COCCNC(=O)c1cn(C(C)(C)C)c2ncccc12
0.197
2) c1cnc(N2CCC3(COCCN(CC4CC4)C3)C2)nc1 (stereo not drawn)
-3.21
3) CCn1cc(CN2CCCN(C(=O)Cc3cccs3)CC2)cn1
6.52
4) CN1CCC2(CC1)CNC(=O)c1ccccc1O2
-5.34
5) COc1ccccc1C1SCC(=O)Nc2n[nH]cc21 (stereo not drawn)
-2.63
6) O=C(NC1CCC1)[C@@H]1C[C@@H]2CCN(Cc3ccncc3)C[C@H]2O1
5.79
7) O=C(Nc1cccnc1)[C@@H]1C[C@H]2OCC[C@H]2N(Cc2ccsc2)C1
0.487
8) CSc1nccc(N2CCN(C)C3(CCNC(=O)CC3)C2)n1 (stereo not drawn)
-1.66
9) O=C(CC1CC1)N[C@@H]1CN(Cc2ccncc2)C[C@@H]2CCCO[C@@H]21
2.12
10) CCN1C[C@H]2[C@@H](C1)N(S(=O)(=O)c1cccnc1)CC[C@H]2OC
-5.91
11) CN1C(=O)C2(CCN(CCO)C2)c2ccccc21 (stereo not drawn)
-4.01
12) CN(C)c1nccc(N2CCO[C@H]3CN(Cc4ccsc4)C[C@H]32)n1
1.59
13) c1ccc(CO[C@H]2CO[C@@]3(CCN(Cc4ccoc4)C3)C2)nc1
-1.38
